Origin of values: the supplement of paper PMC3545927

- SYSTEM UNDER TEST: furin, P09958;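 note: purified furin at 1:10 enzyme:substrate in 50 mM HEPES pH 7.5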
- Sequence (P09958 whole entry): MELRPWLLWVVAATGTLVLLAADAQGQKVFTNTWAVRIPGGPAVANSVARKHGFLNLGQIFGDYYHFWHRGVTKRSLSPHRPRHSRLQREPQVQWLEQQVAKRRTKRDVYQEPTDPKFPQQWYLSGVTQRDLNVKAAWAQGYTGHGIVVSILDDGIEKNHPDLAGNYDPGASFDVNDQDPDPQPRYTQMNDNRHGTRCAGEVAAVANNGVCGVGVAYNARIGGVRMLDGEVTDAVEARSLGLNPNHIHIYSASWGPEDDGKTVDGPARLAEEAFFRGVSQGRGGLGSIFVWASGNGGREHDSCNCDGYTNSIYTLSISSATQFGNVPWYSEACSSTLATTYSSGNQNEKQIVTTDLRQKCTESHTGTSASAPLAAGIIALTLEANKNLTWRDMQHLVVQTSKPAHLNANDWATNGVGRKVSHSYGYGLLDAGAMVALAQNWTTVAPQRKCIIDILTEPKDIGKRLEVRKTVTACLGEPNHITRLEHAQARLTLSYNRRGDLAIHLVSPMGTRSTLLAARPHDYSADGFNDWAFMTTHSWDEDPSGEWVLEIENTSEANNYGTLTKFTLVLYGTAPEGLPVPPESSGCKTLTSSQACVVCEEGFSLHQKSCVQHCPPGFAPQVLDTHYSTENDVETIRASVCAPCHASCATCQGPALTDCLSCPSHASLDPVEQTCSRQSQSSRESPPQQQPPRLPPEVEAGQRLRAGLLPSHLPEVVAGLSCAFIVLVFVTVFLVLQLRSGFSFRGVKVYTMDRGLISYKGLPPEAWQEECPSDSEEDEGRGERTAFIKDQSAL
- PROCEDURE SUMMARY: furin cleavage Z-score vs untreated control; higher = more cleavage, active = 3.5 or more, inactive = 1 or less, 8 variable residues between constant flanks
- STATED CONDITIONS: 30 min
This is one part of the list. The hit rate among all sequences tested is not known here.
READOUT NAME: furin cleavage Z-score
// no unit string in output, number only

furin cleavage Z-score recorded for this sequence, CAPLEVIKGGAGNASASA [HC851] , is 0.579

furin cleavage Z-score recorded for this sequence, CARYARKIEPAGNASASA [FS-2847] , is 2.59

furin cleavage Z-score recorded for this sequence, CAAQLHVWIPAGNASASA [HC588] , is -0.108

furin cleavage Z-score recorded for this sequence, CARKRRPYGSAGNASASA [FS-1960] , is -2

furin cleavage Z-score recorded for this sequence, CARKGRSQSVAGNASASA [FS-2688] , is 2.28

furin cleavage Z-score recorded for this sequence, CAREGRSKALAGNASASA [FS-2911] , is 0.493

furin cleavage Z-score recorded for this sequence, CARKNRSTASAGNASASA [FS-3159] , is 5.71

furin cleavage Z-score recorded for this sequence, CARNKRDTMVAGNASASA [FS-1862] , is 10.9

furin cleavage Z-score recorded for this sequence, CARKNRSQIVAGNASASA [FS-1731] , is 1.82

furin cleavage Z-score recorded for this sequence, CAFRKRSHSKAGNASASA [FS-2120] , is -1.04

furin cleavage Z-score recorded for this sequence, CARKGRSYGSAGNASASA [FS-1902] , is 3.35

furin cleavage Z-score recorded for this sequence, CARNKKQNSQAGNASASA [FS-2282] , is -0.768

furin cleavage Z-score recorded for this sequence, CARNKKSKMDAGNASASA [FS-2497] , is -0.939

furin cleavage Z-score recorded for this sequence, CAAKSVCGPVAGNASASA [HC410] , is -1.19

furin cleavage Z-score recorded for this sequence, CARYGRFLQPAGNASASA [FS-3134] , is 0.786
